# target.system: vanilloid receptor 1 (VR1/TRPV1) of the rat species (Rattus norvegicus)
# Construct: The spinal column is removed from decapitated rats; from tissue; host or cells: primary cells dissociated from rat dorsal root ganglia
# Sequence (O35433 whole entry): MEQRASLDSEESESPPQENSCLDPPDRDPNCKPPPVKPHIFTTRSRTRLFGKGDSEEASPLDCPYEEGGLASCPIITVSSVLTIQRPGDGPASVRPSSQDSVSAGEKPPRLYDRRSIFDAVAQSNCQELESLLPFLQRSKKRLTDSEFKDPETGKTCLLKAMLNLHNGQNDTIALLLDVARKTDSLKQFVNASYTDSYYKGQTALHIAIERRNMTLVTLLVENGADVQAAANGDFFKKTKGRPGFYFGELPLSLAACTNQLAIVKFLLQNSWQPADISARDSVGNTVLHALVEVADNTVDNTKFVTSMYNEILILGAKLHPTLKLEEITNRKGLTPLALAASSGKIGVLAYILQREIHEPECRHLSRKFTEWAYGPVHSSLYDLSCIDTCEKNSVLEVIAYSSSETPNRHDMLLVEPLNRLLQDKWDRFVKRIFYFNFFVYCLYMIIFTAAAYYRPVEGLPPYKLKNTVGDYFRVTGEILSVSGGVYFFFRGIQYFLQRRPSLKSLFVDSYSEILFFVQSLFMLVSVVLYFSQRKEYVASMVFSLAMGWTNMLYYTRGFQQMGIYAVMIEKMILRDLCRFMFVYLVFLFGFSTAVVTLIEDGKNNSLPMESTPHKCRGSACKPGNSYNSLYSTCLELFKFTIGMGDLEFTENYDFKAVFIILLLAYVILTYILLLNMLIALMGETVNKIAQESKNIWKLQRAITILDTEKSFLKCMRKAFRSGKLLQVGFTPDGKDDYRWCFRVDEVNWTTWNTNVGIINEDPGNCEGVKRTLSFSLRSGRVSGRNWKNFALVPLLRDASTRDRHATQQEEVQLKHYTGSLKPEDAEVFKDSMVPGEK
# protocol.description: FLIPR Ca2+ influx assay on rat dorsal root ganglia cells (pharmacological method I)
# Type: cell-based
# conditions.used: Ki (rat) Cap., table 4; capsaicin
measurement.kind: Ki (pM)
Give bare numbers, in pM.

INSERT INTO measurements (compound, measurement_kind, recorded_number) VALUES
  ('CCCCCCOc1nc(C(F)(F)F)ccc1CNC(=O)[C@@H](C)c1ccc(NS(C)(=O)=O)c(F)c1', 'Ki', 200);

For every item in the list below, what is its measured Ki?
1. CC(C(=O)NCc1ccc(C(F)(F)F)nc1OCC1CCCC1)c1ccc(NS(C)(=O)=O)c(F)c1 (stereo not shown)
2. CC(C(=O)NCc1ccc(C(F)(F)F)nc1OCc1ccc(C(F)(F)F)cc1)c1ccc(NS(C)(=O)=O)c(F)c1 (stereo not shown)
3. CC(C(=O)NCc1ccc(C(F)(F)F)nc1OCC1CCC1)c1ccc(NS(C)(=O)=O)c(F)c1 (stereo not shown)
4. CC(C(=O)NCc1ccc(C(F)(F)F)nc1OCc1ccc(C(C)(C)C)cc1)c1ccc(NS(C)(=O)=O)c(F)c1 (stereo not shown)
5. CCC1CCC(Oc2nc(C(F)(F)F)ccc2CNC(=O)C(C)c2ccc(NS(C)(=O)=O)c(F)c2)CC1 (stereo not shown)

a:
[700, 700, 1000, 1100, 2400]

q: Quick one: Ki for CCCCCCOc1nc(C(F)(F)F)ccc1CNC(=O)C(C)c1ccc(NS(C)(=O)=O)c(F)c1 (stereo not shown) ?
a: 500
